Molecular target: T1, GABARAP (human, UniProt O95166 1-117, limits assumed)
T1 construct: elsewhere only "mammalian"
T1 sequence (O95166 whole entry): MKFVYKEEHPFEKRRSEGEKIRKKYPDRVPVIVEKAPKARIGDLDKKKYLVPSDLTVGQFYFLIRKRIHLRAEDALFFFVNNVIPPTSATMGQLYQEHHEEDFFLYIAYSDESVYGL
Experiment: ITC
Assay metric: pKd
Numbers only, as −log10 of the molar value.

Ask | Give recorded pKd. VEEEWVIVSDERIEEARQKAPLEITEY (also called AnkB E1599R) [E1599R]
Reply | 7.42
